biological target: VEGFR2 (Homo sapiens); construct: purchased #40325; assay: VEGFR2 kinase assay kit, Kinase-Glo MAX luminescence; assay type: biochemical; settings: 0.01 µM; one experimental data; read-out: % Inhibition VEGFR-2
Sequence (P35968 20-1356): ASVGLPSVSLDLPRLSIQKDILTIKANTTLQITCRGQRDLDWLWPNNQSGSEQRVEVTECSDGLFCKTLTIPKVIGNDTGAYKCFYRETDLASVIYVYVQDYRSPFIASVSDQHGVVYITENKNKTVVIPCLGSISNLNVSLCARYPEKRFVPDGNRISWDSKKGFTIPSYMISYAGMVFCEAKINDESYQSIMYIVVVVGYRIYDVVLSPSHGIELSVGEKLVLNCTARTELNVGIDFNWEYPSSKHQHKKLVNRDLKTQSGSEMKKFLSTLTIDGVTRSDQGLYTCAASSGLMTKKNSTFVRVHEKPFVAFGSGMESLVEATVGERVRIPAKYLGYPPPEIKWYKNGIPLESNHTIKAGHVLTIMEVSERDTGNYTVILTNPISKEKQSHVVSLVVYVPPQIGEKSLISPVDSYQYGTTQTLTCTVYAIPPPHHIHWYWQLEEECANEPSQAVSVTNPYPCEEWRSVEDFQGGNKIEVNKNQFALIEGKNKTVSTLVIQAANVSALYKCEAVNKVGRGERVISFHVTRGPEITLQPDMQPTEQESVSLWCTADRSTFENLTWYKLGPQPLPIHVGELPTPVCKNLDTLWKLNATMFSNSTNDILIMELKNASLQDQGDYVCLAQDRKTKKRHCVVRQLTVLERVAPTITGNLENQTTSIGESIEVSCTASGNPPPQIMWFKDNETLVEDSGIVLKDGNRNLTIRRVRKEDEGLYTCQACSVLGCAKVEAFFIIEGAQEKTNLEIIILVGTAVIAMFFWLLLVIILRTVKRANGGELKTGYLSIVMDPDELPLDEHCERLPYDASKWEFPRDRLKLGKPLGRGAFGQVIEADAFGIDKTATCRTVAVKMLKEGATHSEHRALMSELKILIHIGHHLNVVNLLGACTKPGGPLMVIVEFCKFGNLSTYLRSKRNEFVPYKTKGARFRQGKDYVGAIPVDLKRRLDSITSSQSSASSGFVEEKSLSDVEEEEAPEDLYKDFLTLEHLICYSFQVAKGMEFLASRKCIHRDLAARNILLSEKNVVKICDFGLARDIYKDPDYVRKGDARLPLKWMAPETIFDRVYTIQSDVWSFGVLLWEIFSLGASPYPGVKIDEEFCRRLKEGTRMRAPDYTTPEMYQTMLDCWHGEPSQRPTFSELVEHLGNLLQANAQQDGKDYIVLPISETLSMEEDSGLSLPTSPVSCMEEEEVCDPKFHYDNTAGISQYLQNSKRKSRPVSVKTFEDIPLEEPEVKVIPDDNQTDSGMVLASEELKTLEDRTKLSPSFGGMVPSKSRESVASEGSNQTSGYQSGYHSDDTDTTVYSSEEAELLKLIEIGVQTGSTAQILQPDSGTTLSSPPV
observed-property: inhibition at 0.01 µM (%)

A = NNC(=O)CSc1nc2ccc(F)cc2c(=O)n1Cc1ccccc1 [3g]
B = CCOC(=O)CSc1nc2cc(OC)c(OC)cc2c(=O)n1Cc1ccccc1 [2i]
C = CCOC(=O)CSc1nc2c(F)cc(F)cc2c(=O)n1Cc1ccccc1 [2h]
Ranking criterion: inhibition at 0.01 µM, increasing numeric value. Items: as listed above. Answer by listing the labels in the order asked for.
A, B, C

I = CCOC(=O)CSc1nc2ccc(Cl)cc2c(=O)n1Cc1ccccc1 [2f]
II = COc1cc2nc(SCC(=O)NN)n(Cc3ccccc3)c(=O)c2cc1OC [3i]
III = Cc1cc(Cl)cc2c(=O)n(Cc3ccccc3)c(SCC(=O)NN)nc12 [3j]
Please order the records by their reported inhibition at 0.01 µM, lowest number first. Answer by listing the labels in the order asked for.
III, I, II

A = NNC(=O)CSc1nc2c(F)cc(F)cc2c(=O)n1Cc1ccccc1 [3h]
B = CCOC(=O)CSc1nc2c(C)cc(Cl)cc2c(=O)n1Cc1ccccc1 [2j]
API: POST /compare with A and B ; response names the item with higher inhibition at 0.01 µM. State your choice using its label.
A
(A: 3.17%, B: 0.324%)

a = NNC(=O)CSc1nc2ccc(Cl)cc2c(=O)n1Cc1ccccc1 [3f]
b = CCOC(=O)CSc1nc2ccc(F)cc2c(=O)n1Cc1ccccc1 [2g]
// which entry reports the smaller inhibition at 0.01 µM, a or b ? State your choice using its label.
b

###

target: VEGFR2 (Homo sapiens); construct: purchased #40325; experiment: VEGFR2 kinase assay kit, Kinase-Glo MAX luminescence; type: biochemical; settings: 0.1 µM; one experimental data; read-out: % Inhibition VEGFR-2
observed-property: inhibition at 0.1 µM (%)

                                   compound            test_system  output_unit  reading
0  CCOC(=O)CSc1nc2ccc(Cl)cc2c(=O)n1Cc1ccccc1 [2f]  VEGFR2 (Homo sapiens)            %     20.2
1  NNC(=O)CSc1nc2ccc(Cl)cc2c(=O)n1Cc1ccccc1 [3f]  VEGFR2 (Homo sapiens)            %     29.8
2  CCOC(=O)CSc1nc2ccc(F)cc2c(=O)n1Cc1ccccc1 [2g]  VEGFR2 (Homo sapiens)            %     18.8
3  COc1cc2nc(SCC(=O)NN)n(Cc3ccccc3)c(=O)c2cc1OC [3i]  VEGFR2 (Homo sapiens)            %     33.5
4  CCOC(=O)CSc1nc2cc(OC)c(OC)cc2c(=O)n1Cc1ccccc1 [2i]  VEGFR2 (Homo sapiens)            %     31.8

A = CCOC(=O)CSc1nc2c(F)cc(F)cc2c(=O)n1Cc1ccccc1 [2h]
B = Cc1cc(Cl)cc2c(=O)n(Cc3ccccc3)c(SCC(=O)NN)nc12 [3j]
// which entry reports the smaller inhibition at 0.1 µM, A or B ? State your choice using its label.
B

P = CCOC(=O)CSc1nc2c(C)cc(Cl)cc2c(=O)n1Cc1ccccc1 [2j]
Q = NNC(=O)CSc1nc2ccc(F)cc2c(=O)n1Cc1ccccc1 [3g]
// which entry reports the smaller inhibition at 0.1 µM, P or Q ? State your choice using its label.
P
